- assay.protocol: chemical genetic growth profiling, strain panel (AID 1159580);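 note: tested at 20 µM; growth read once vehicle control cultures reached saturation at 30 °C; 1 = growth at the plate median or of vehicle wells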
- applied.conditions: S. cerevisiae deletion strains, growth OD, locus YKL160W, strain elf1, stronger effect = lower value
In all, about 5,500 compounds went through this assay and about 2,000 (36%) were called active. Another 18% or so got no clear call; they are omitted. The list shows a part of the results.
Overview of reported normalized growth across a group of molecules:

In the examples that follow, each entry is paired with its recorded normalized growth.
O=[N+]([O-])c1cc([As](=O)(O)O)ccc1O | 0.959 (inactive)
COC(=O)C[C@H]1C(C)(C)C(=O)[C@@H]2CC3=C4CC(=O)O[C@@H](c5ccoc5)[C@]4(C)CCC3[C@@]1(C)C2=O (stereo partly specified) | 0.996 (inactive)

Ask: // Input: CCOP(=S)(OCC)SCn1c(=O)oc2cc(Cl)ccc21 . Output its normalized growth only.
Result: 0.968 (inactive)

Ask: // Input: O=[N+]([O-])c1cc(O)c(O)c([N+](=O)[O-])c1 . Output its normalized growth only.
Result: 1 (inactive)

Ask: // Input: CC(=O)Nc1cc([As](=O)(O)O)ccc1O . Output its normalized growth only.
Result: 0.981 (inactive)

Ask: // Input: O=C(O)c1ccccc1Nc1cccc(C(F)(F)F)c1 . Output its normalized growth only.
Result: 0.835 (active)

----------
Overview of reported normalized growth across a group of compounds:
- assay.protocol: chemical genetic growth profiling, strain panel (AID 1159580)
- applied.conditions: S. cerevisiae deletion strains, growth OD, locus YBR160W, strain CDC28, stronger effect = lower value
Among all 5,500 compounds or so, about 2,000 (36%) were called active. Inconclusive results (about 18%) are left out. The list shows a part of the results.
The answer should be written as a number, with no unit following it.

In the examples that follow, each entry is paired with its recorded normalized growth.
O=C1CSC(c2cccnc2)N1c1ccc(Cl)cc1Cl (stereo unspecified) | 0.994
O=C(NCCSCc1ccco1)Nc1cc(Cl)cc(Cl)c1 | 0.957
O=C(NCCSCc1cccc(C(F)(F)F)c1)Nc1cccc(C(F)(F)F)c1 | 0.997

Ask: // Input: O=C(NCCSCc1cccc(C(F)(F)F)c1)c1ccc(Cl)cc1 . Output its normalized growth only.
Result: 0.964

Ask: // Input: Cc1cc(Cl)ccc1NC(=S)NNC(=S)Nc1ccc(F)cc1 . Output its normalized growth only.
Result: 0.966

Ask: // Input: O=[N+]([O-])c1cc(Br)cnc1Sc1nnc(SCC2CC2)s1 . Output its normalized growth only.
Result: 0.953

----------
- assay.protocol: chemical genetic growth profiling, strain panel (AID 1159580)
- applied.conditions: S. cerevisiae deletion strains, growth OD, locus YMR205C, strain PFK2, stronger effect = lower value
About 2,000 (36%) of roughly 5,500 compounds were called active. Another 18% or so got no clear call; they are omitted. This is one part of the list.
normalized growth strictly under 0.9 means true (1); at 0.9 or over means false (0).

NC[C@H](O)c1ccc(O)c(O)c1 | false (0)
CC(C)NCC(O)c1ccc(O)c(O)c1 (stereo not drawn) | false (0)
Cc1occc(=O)c1O | false (0)

Continue with the molecule presented below.
Ask: Identify whether the molecule NCC(O)c1ccc(O)cc1 (stereo not drawn) records normalized growth below 0.9.
Result: false (0)

----------
- assay.protocol: chemical genetic growth profiling, strain panel (AID 1159580)
- applied.conditions: S. cerevisiae deletion strains, growth OD, locus YDL108W, strain KIN28
Out of some 5,500 compounds screened, about 2,000 (36%) were called active. Not shown: some 18% with an inconclusive outcome. No stated cut-off is given here; in the data, active means normalized growth mostly below about 0.91 (no sharp cut-off); inconclusive means no clear call, values can overlap the other calls; inactive means mostly above about 0.92. The list shows a part of the results.
Just give me one of these, please: active, inactive

Check out these entries, answers already filled in.
Fc1cccc(Cl)c1CSc1nncn1-c1ccc(OCc2ccccc2)cc1 | inactive
O=[N+]([O-])/C=C/c1ccc(F)cc1 | active
O=[N+]([O-])c1cc(Br)cnc1Sc1nnc(SCC2CC2)s1 | inactive

Ask: Given N#CCC(=O)NNC(=S)Nc1ccc(Cl)c(Cl)c1 , state the outcome it received in this test.
Result: inactive

Ask: Given O=C(c1ccccc1)c1cc(Cl)ccc1NC(=S)Nc1ccc(F)cc1 , state the outcome it received in this test.
Result: inactive

Ask: Given O=C(Nc1ccc(C(F)(F)F)cc1)N1CCN(c2ccnc3cc(Cl)ccc23)CC1 , state the outcome it received in this test.
Result: inactive

Ask: Given O=C(NCc1ccncc1)c1ccc(-n2cccn2)cc1 , state the outcome it received in this test.
Result: inactive

Ask: Given O=S(=O)(N/N=C\c1ccc(Cl)cc1)c1ccc(-c2ccccn2)s1 , state the outcome it received in this test.
Result: inactive

Ask: Given COc1ccc(C(=O)CSC2=NCCc3ccccc32)cc1 , state the outcome it received in this test.
Result: inactive

Ask: Given CSc1ccc(/C=C(\C)[N+](=O)[O-])cc1 , state the outcome it received in this test.
Result: active

Ask: Given O=[N+]([O-])/C=C/c1ccsc1 , state the outcome it received in this test.
Result: active

Ask: Given O=C(NCCSCc1ccco1)Nc1cc(Cl)cc(Cl)c1 , state the outcome it received in this test.
Result: inactive

----------
- assay.protocol: chemical genetic growth profiling, strain panel (AID 1159580);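 note: tested at 20 µM; growth read once vehicle control cultures reached saturation at 30 °C; 1 = growth at the plate median or of vehicle wells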
- applied.conditions: S. cerevisiae deletion strains, growth OD, locus YGR135W, strain pre9, stronger effect = lower value
The campaign covered roughly 5,500 compounds. About 2,000 (36%) were called active. Another 18% or so got no clear call; they are omitted. Some of the results follow.
Overview of reported normalized growth across a group of compounds:
The answer should be written as a number, with no unit following it.

In the examples that follow, each entry is paired with its recorded normalized growth.
COc1ccccc1OCCNCC(O)COc1cccc2[nH]c3ccccc3c12 (configuration not stated) | 1.01
CCOP(=S)(OCC)SCn1c(=O)oc2cc(Cl)ccc21 | 0.977
COc1cc(C(=O)NCc2ccc(OCCN(C)C)cc2)cc(OC)c1OC | 1.06
CC(=O)OCC1(C)CCC2(C)CCC3(C)C4=CCc5c(cc(OC(C)=O)c(OC(C)=O)c5C)C4(C)CCC3(C)C2C1 (configuration not stated) | 1
CC(=O)Nc1ccc(S(=O)(=O)Nc2ccc([N+](=O)[O-])cc2)cc1 | 0.996

Ask: // Input: CCN(CC)CCOc1ccc2c(c1)C(=O)c1cc(OCCN(CC)CC)ccc1-2 . Output its normalized growth only.
Result: 1.02

Ask: // Input: C=CC(C1=CC(=O)C(OC)=CC1=O)c1ccc(OC)cc1 (configuration not stated) . Output its normalized growth only.
Result: 0.856

Ask: // Input: CCCCC(CC)CN1CN(CC(CC)CCCC)CC(C)(N)C1 (configuration not stated) . Output its normalized growth only.
Result: 0.381

----------
- assay.protocol: chemical genetic growth profiling, strain panel (AID 1159580);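 note: tested at 20 µM; growth read once vehicle control cultures reached saturation at 30 °C; 1 = growth at the plate median or of vehicle wells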
- applied.conditions: S. cerevisiae deletion strains, growth OD, locus YOR106W, strain vam3, stronger effect = lower value
Hit rate of the full screen: of about 5,500 compounds, about 2,000 (36%) were called active. Not shown: some 18% with an inconclusive outcome. This is one part of the list.
normalized growth strictly under 1 means Condition met; at 1 or over means Condition not met.

Check out these entries, answers already filled in.
CO[C@H]1/C=C/O[C@@]2(C)Oc3c(C)c(O)c4c(O)c(c5c(nc6cc(C)ccn65)c4c3C2=O)NC(=O)/C(C)=C\C=C\[C@H](C)[C@H](O)[C@@H](C)C(O)[C@@H](C)[C@H](OC(C)=O)[C@@H]1C (stereo partly drawn) | Condition not met
CO[C@H]1/C=C/O[C@@]2(C)Oc3c(C)c(O)c4c(O)c(c(/C=N/N5CCN(C)CC5)c(O)c4c3C2=O)NC(=O)/C(C)=C\C=C\C(C)[C@H](O)[C@@H](C)[C@@H](O)[C@@H](C)[C@@H](OC(C)=O)[C@@H]1C (stereo partly drawn) | Condition not met

Continue with the compound presented below.
Ask: Identify whether the compound CCN(CC)CCNC(=O)c1cc(S(C)(=O)=O)ccc1OC records normalized growth below 1.
Result: Condition met

----------
- assay.protocol: chemical genetic growth profiling, strain panel (AID 1159580);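 note: tested at 20 µM; growth read once vehicle control cultures reached saturation at 30 °C; 1 = growth at the plate median or of vehicle wells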
- applied.conditions: S. cerevisiae deletion strains, growth OD, locus YKL009W, strain mrt4, stronger effect = lower value
The campaign covered roughly 5,500 compounds. About 2,000 (36%) were called active. Another 18% or so got no clear call; they are omitted. Some of the results follow.
normalized growth strictly under 1 means 1; at 1 or over means -1.

C=CC(C1=CC(=O)C=CC1=O)c1ccccc1 (stereo not drawn) | 1
O=C(O)c1cccnc1Nc1cccc(C(F)(F)F)c1 | 1
CC(C)(C)NC[C@@H](O)COc1nsnc1N1CCOCC1 | -1
Nc1ncnc2c1ncn2[C@@H]1O[C@H](CO)[C@@H](O)[C@H]1O | 1
Oc1ccc(Cl)c2cccnc12 | 1

Continue with the compound presented below.
Ask: Identify whether the compound O=c1[nH]c(=O)n(C2C[C@@H](O)[C@@H](CO)O2)cc1F (stereo partly drawn) records normalized growth below 1.
Result: -1
